Recorded TGI values for a group of compounds are listed next.
system: HS 578T breast; test: NCI tumour cell line growth inhibition, 48 h
*1 amine or outer side, *2 acyl side, *3 side chain or, on linkers, in order; H or OH if unused. Where a SMILES comes first, the peptide text is derived from it. Bridges are numbered along the chain shown (N, C = ends). [ ]: non-standard residue; d: D form. The star is where a group is joined. Phe(3,5-F2) = N[C@@H](Cc1cc(F)cc(F)c1)C(=O)O; Pro(4R-Me) = C[C@H]1CN[C@H](C(=O)O)C1; aThr = C[C@H](O)[C@H](N)C(=O)O; Pip = O=C(O)[C@@H]1CCCCN1; X10 = Fc1cc(C2CC2)ccc1N*; CO = O=C([*:1])[*:2]
Give your result in µM as a bare value.

[ask] Hello, please tell me recorded TGI for this one: S=C1Nc2ccccc2SC1c1ccccc1 (stereo not given)
[reply] 83.2

[ask] Hello, please tell me recorded TGI for this one: COc1ccc(-c2c(C#N)c(-c3ccc(C)cc3)n(NS(=O)(=O)c3ccc(C)cc3)c(=O)c2C#N)cc1
[reply] 75.1

[ask] Hello, please tell me recorded TGI for this one: CCN1/C(=C\c2cc[n+](CC)c3ccccc23)C=Cc2ccccc21
[reply] 15.8

[ask] Hello, please tell me recorded TGI for this one: C[C@@H]1C[C@H]2C(=O)O[C@@H](C)[C@H](NC(=O)[C@H](Cc3cc(F)cc(F)c3)NC(=O)Nc3ccc(C4CC4)cc3F)C(=O)N3CCC[C@H]3C(=O)N3CCCC[C@H]3C(=O)N[C@@H](C)C(=O)N2C1 ({X10-CO}-[Phe(3,5-F2)][aThr]P[Pip]A[Pro(4R-Me)]; ester 2-C)
[reply] 3.94

[ask] Hello, please tell me recorded TGI for this one: O=[N+]([O-])c1ccc2c(c1)/C(=N/N=C1c3ccccc3Cc3ccccc31)c1cc([N+](=O)[O-])cc([N+](=O)[O-])c1-2
[reply] 6.81

[ask] Hello, please tell me recorded TGI for this one: CN(C)c1ccc(/C=C\C2=[N+](C)c3ccccc3C2(C)C)cc1
[reply] 8.68

[ask] Hello, please tell me recorded TGI for this one: CCOC(=O)Cn1c(C(F)(F)F)nc2nc(Cl)c(Cl)nc21
[reply] 87.2

[ask] Hello, please tell me recorded TGI for this one: CC(C)(C)N1CSC(=S)N(Cc2ccco2)C1
[reply] 26.1

[ask] Hello, please tell me recorded TGI for this one: OC1CSSC1Cn1cnc2c(Nc3ccc(OCc4cccc(F)c4)c(Cl)c3)ncnc21 (stereo not given)
[reply] 15

[ask] Hello, please tell me recorded TGI for this one: Fc1ccc(NC(=S)SCc2ccc3c(c2)OCO3)cc1F
[reply] 88.7
